# testDetails: Pharmacokinetic study in rats after oral administration of RPM extract (UPLC-MS/MS of plasma)
# Assay type: in vivo, Sprague-Dawley rats
# protocolConditions: male, Sprague-Dawley; rat plasma, single oral dose of RPM extract 36 g/kg, n = 6, mean ± SD; read-out: MRT0–∞
measuredMetric: MRT inf (h)
Numbers only, in h.

Observe how each entry below is paired with its result.
compound	MRT inf [h]
Cc1cc(O)c2c(c1)C(=O)c1cccc(O)c1C2=O	6.76
O=C(O)c1cc(O)c2c(c1)C(=O)c1cccc(O)c1C2=O	1.83
OC[C@H]1O[C@@H](Oc2c(O)cc(O)cc2/C=C/c2ccc(O)cc2)[C@H](O)[C@@H](O)[C@@H]1O	3.66

Exercise: Could you tell me which MRT inf is on file for COc1cc(O[C@@H]2O[C@H](CO)[C@@H](O)[C@H](O)[C@H]2O)c2c(O)c(C(C)=O)c(C)cc2c1 [TG, torachrysone-8-O-glucoside] ?
Key: 2.1

====

# testDetails: Pharmacokinetic study in rats after oral administration of RPM extract (UPLC-MS/MS of plasma)
# Type: in vivo, Sprague-Dawley rats
# protocolConditions: male, Sprague-Dawley, rat, in vivo, po, 36 g/kg
measuredMetric: Tmax

Exercise: What does the record list as Tmax for O=C1c2cc(O)cc(O)c2C(=O)c2c(O)cc(CO)cc21 ?
Key: 11.4 min

====

What Tmax was measured for each of the following?
# testDetails: Pharmacokinetic study in rats after oral administration of RPM extract (UPLC-MS/MS of plasma)
# Type: in vivo, Sprague-Dawley rats
# protocolConditions: male, Sprague-Dawley; rat plasma, single oral dose of RPM extract 36 g/kg, n = 6, mean ± SD; read-out: Tmax
One number for each entry, in min.

Example entries and their recorded answers appear below.
compound	Tmax [min]
O=C(O)c1cc(O)c2c(c1)C(=O)c1cccc(O)c1C2=O [Rhein, rhein]	27.6
COc1cc(O[C@@H]2O[C@H](CO)[C@@H](O)[C@H](O)[C@H]2O)c2c(O)c(C(C)=O)c(C)cc2c1 [TG, torachrysone-8-O-glucoside]	6.6
OC[C@H]1O[C@@H](Oc2c(O)cc(O)cc2/C=C/c2ccc(O)cc2)[C@H](O)[C@@H](O)[C@@H]1O [TSG]	19.8

Exercise: Name the reported Tmax value associated with the compound Cc1cc(O)c2c(c1)C(=O)c1cccc(O)c1C2=O [Chrysophanol, chrysophanol]
Key: 133

====

# testDetails: Pharmacokinetic study in rats after oral administration of RPM extract (UPLC-MS/MS of plasma)
# Format: in vivo, Sprague-Dawley rats
# protocolConditions: male, Sprague-Dawley, rat, in vivo, po, 36 g/kg
measuredMetric: MRT inf

Exercise: Requested field: MRT inf. Item: O=C1c2cc(O)cc(O)c2C(=O)c2c(O)cc(CO)cc21
Key: 5.32 h

====

# testDetails: Pharmacokinetic study in rats after oral administration of RPM extract (UPLC-MS/MS of plasma)
# Assay type: in vivo, Sprague-Dawley rats
# protocolConditions: male, Sprague-Dawley; rat plasma, single oral dose of RPM extract 36 g/kg, n = 6, mean ± SD; read-out: AUC0–∞
Assignment: determine reported AUC(0-inf) for the given compounds.
Answers are plain numbers, in ng·h/mL.

Past entries and their recorded results:
compound	endpointUnit	AUC(0-inf)
O=C(O)c1cc(O)c2c(c1)C(=O)c1cccc(O)c1C2=O	ng·h/mL	2.31
OC[C@H]1O[C@@H](Oc2c(O)cc(O)cc2/C=C/c2ccc(O)cc2)[C@H](O)[C@@H](O)[C@@H]1O	ng·h/mL	1870
Cc1cc(O)c2c(c1)C(=O)c1cccc(O)c1C2=O	ng·h/mL	10.3

Exercise: Looking for the measured AUC(0-inf) of COc1cc(O[C@@H]2O[C@H](CO)[C@@H](O)[C@H](O)[C@H]2O)c2c(O)c(C(C)=O)c(C)cc2c1 [TG, torachrysone-8-O-glucoside] , can you help?
Key: 21.7
